- PROCEDURE_TEXT: Dispersibility test in Japanese Pharmacopoeia First and Second Solution
- Type: physicochemical
- RECORDED_CONDITIONS: JP1, pH 1.2
Dispersibility in Japanese Pharmacopoeia First Solution by entry:

CCOC1CN([C@H]2C[C@@H](c3ncc(CCC(=O)O)s3)N(C(=O)Cc3cc(Cl)c(NC(=O)c4cn(C)c5ccccc45)cc3F)C2)C1 ... 940 µg/mL
O=C(O)CCc1cnc([C@@H]2[C@@H](O)CCN2C(=O)Cc2ccc(Nc3nc4ccccc4s3)c(Cl)c2)s1 ... 730 µg/mL
O=C(O)CCc1cnc([C@@H]2[C@@H](O)CCN2C(=O)Cc2cc(Cl)c(Nc3nc4ccccc4s3)cc2F)s1 ... 320 µg/mL
COC1CN([C@H]2C[C@@H](c3ncc(CCC(=O)O)s3)N(C(=O)Cc3cc(Cl)c(NC(=O)c4cn(C)c5ccccc45)cc3F)C2)C1 ... 1000 µg/mL
Cn1cc(C(=O)Nc2cc(Cl)c(CC(=O)N3C[C@@H](N4CCCCC4)C[C@H]3c3ncc(CCC(=O)O)s3)cc2Cl)c2ccccc21 ... >2000 µg/mL

Could you share which Dispersibility in Japanese Pharmacopoeia First Solution value was measured for "C[C@@H]1CN([C@H]2C[C@@H](c3ncc(CCC(=O)O)s3)N(C(=O)Cc3cc(Cl)c(NC(=O)c4coc5ccccc45)cc3Cl)C2)C[C@H](C)O1" ?
1100 µg/mL

Same lookup for "O=C(O)CCc1cnc([C@@H]2C[C@H](N3CCC(F)(F)CC3)CN2C(=O)Cc2cc(Cl)c(NC(=O)c3csc4ccccc34)cc2F)s1" , please.
220 µg/mL

Same lookup for "O=C(O)CCc1cnc([C@@H]2C[C@H](N3CCC(F)(F)CC3)CN2C(=O)Cc2cc(Cl)c(NC(=O)c3coc4ccccc34)cc2Cl)s1" , please.
260 µg/mL

Same lookup for "O=C(O)CCc1cnc([C@@H]2[C@@H](O)CCN2C(=O)Cc2cc(Cl)c(Nc3nc4ccccc4s3)cc2Cl)s1" , please.
160 µg/mL
